experiment: Therapeutic index, ratio of CC50 for human H9 cells to EC50 for HIV1; assay type: cell-based; conditions: read-out: TI
reported_endpoint: selectivity ratio

smiles_notation	reported_endpoint	val
CCc1cc(=O)c2ccc3c(c2o1)[C@@H](OC(=O)[C@@]12CC[C@@](C)(C(=O)O1)C2(C)C)[C@@H](OC(=O)[C@@]12CC[C@@](C)(C(=O)O1)C2(C)C)C(C)(C)O3	selectivity ratio	94

---

Known EC50 of a selection of compounds
tested on: Human immunodeficiency virus 1; test: Antiviral activity against wild type HIV1 NL4-3 in human TZM-b1 cells after 48 hrs by luciferase reporter gene assay; assay type: functional, organism-based; settings: Human immunodeficiency virus 1, NL4-3, TZM-b1, 48 h

smiles_notation	EC50
Cc1oc2c3c(ccc2c(=O)c1N)OC(C)(C)[C@H](OC(=O)[C@@]12CC[C@@](C)(C(=O)O1)C2(C)C)[C@@H]3OC(=O)[C@@]12CC[C@@](C)(C(=O)O1)C2(C)C	250 nM
CCc1cc(=O)c2c(C)cc3c(c2o1)[C@@H](OC(=O)[C@@]12CC[C@@](C)(C(=O)O1)C2(C)C)[C@@H](OC(=O)[C@@]12CC[C@@](C)(C(=O)O1)C2(C)C)C(C)(C)O3	100 nM
Cc1oc2c3c(ccc2c(=O)c1I)OC(C)(C)[C@H](OC(=O)[C@@]12CC[C@@](C)(C(=O)O1)C2(C)C)[C@@H]3OC(=O)[C@@]12CC[C@@](C)(C(=O)O1)C2(C)C	730 nM
CCc1cc(=O)c2ccc3c(c2o1)[C@@H](OC(=O)[C@@]12CC[C@@](C)(C(=O)O1)C2(C)C)[C@@H](OC(=O)[C@@]12CC[C@@](C)(C(=O)O1)C2(C)C)C(C)(C)O3	70 nM
CC1(C)Oc2ccc3c(=O)cc(CC#N)oc3c2[C@@H](OC(=O)[C@@]23CC[C@@](C)(C(=O)O2)C3(C)C)[C@H]1OC(=O)[C@@]12CC[C@@](C)(C(=O)O1)C2(C)C	1800 nM

---

tested on: Human immunodeficiency virus 1; test: Antiviral activity against wild type HIV1 NL4-3 in human TZM-b1 cells after 48 hrs by luciferase reporter gene assay; assay type: functional, organism-based; details: Human immunodeficiency virus 1, NL4-3, TZM-b1, 48 h
Recorded EC50 values for a group of molecules are listed next.

smiles_notation	EC50
Cc1oc2c3c(cc(C)c2c(=O)c1Br)OC(C)(C)[C@H](OC(=O)[C@@]12CC[C@@](C)(C(=O)O1)C2(C)C)[C@@H]3OC(=O)[C@@]12CC[C@@](C)(C(=O)O1)C2(C)C	590 nM
Cc1cc(=O)c2ccc3c(c2o1)[C@@H](OC(=O)[C@@]12CC[C@@](C)(C(=O)O1)C2(C)C)[C@@H](OC(=O)[C@@]12CC[C@@](C)(C(=O)O1)C2(C)C)C(C)(C)O3	100 nM
CNCc1cc(=O)c2ccc3c(c2o1)[C@@H](OC(=O)[C@@]12CC[C@@](C)(C(=O)O1)C2(C)C)[C@@H](OC(=O)[C@@]12CC[C@@](C)(C(=O)O1)C2(C)C)C(C)(C)O3	290 nM
CCc1oc2c3c(ccc2c(=O)c1C#N)OC(C)(C)[C@H](OC(=O)[C@@]12CC[C@@](C)(C(=O)O1)C2(C)C)[C@@H]3OC(=O)[C@@]12CC[C@@](C)(C(=O)O1)C2(C)C	550 nM
CC1(C)Oc2ccc3c(=O)cc(CBr)oc3c2[C@@H](OC(=O)[C@@]23CC[C@@](C)(C(=O)O2)C3(C)C)[C@H]1OC(=O)[C@@]12CC[C@@](C)(C(=O)O1)C2(C)C	550 nM
CCc1oc2c3c(ccc2c(=O)c1Br)OC(C)(C)[C@H](OC(=O)[C@@]12CC[C@@](C)(C(=O)O1)C2(C)C)[C@@H]3OC(=O)[C@@]12CC[C@@](C)(C(=O)O1)C2(C)C	1100 nM
Cc1cc(=O)c2c(CBr)cc3c(c2o1)[C@@H](OC(=O)[C@@]12CC[C@@](C)(C(=O)O1)C2(C)C)[C@@H](OC(=O)[C@@]12CC[C@@](C)(C(=O)O1)C2(C)C)C(C)(C)O3	810 nM
CCc1cc(=O)c2c(CC)cc3c(c2o1)[C@@H](OC(=O)[C@@]12CC[C@@](C)(C(=O)O1)C2(C)C)[C@@H](OC(=O)[C@@]12CC[C@@](C)(C(=O)O1)C2(C)C)C(C)(C)O3	250 nM
Cc1c(C#N)oc2c3c(ccc2c1=O)OC(C)(C)[C@H](OC(=O)[C@@]12CC[C@@](C)(C(=O)O1)C2(C)C)[C@@H]3OC(=O)[C@@]12CC[C@@](C)(C(=O)O1)C2(C)C	140 nM
CCc1oc2c3c(ccc2c(=O)c1NC)OC(C)(C)[C@H](OC(=O)[C@@]12CC[C@@](C)(C(=O)O1)C2(C)C)[C@@H]3OC(=O)[C@@]12CC[C@@](C)(C(=O)O1)C2(C)C	440 nM
CC(Br)(Br)c1cc(=O)c2ccc3c(c2o1)[C@@H](OC(=O)[C@@]12CC[C@@](C)(C(=O)O1)C2(C)C)[C@@H](OC(=O)[C@@]12CC[C@@](C)(C(=O)O1)C2(C)C)C(C)(C)O3	1000 nM
CNc1c(C)oc2c3c(ccc2c1=O)OC(C)(C)[C@H](OC(=O)[C@@]12CC[C@@](C)(C(=O)O1)C2(C)C)[C@@H]3OC(=O)[C@@]12CC[C@@](C)(C(=O)O1)C2(C)C	300 nM
